# assay overview: Pharmacokinetic study in monkeys
# condition: in vivo; Cynomolgus monkey, animal 583, dose 11.8 mg/kg, suspension Cilengitide 300 mg/mL + DMPG 2 mg/mL, 0.250 h; read-out: MSC1097999
measured attribute: level at 0.25 h (ng/mL)
Quick note: give the figure in ng/mL, leave out the unit.

level at 0.25 h reported for this molecule CC(C)[C@H]1C(=O)N[C@@H](CCCN=C(N)N)C(=O)NCC(=O)N[C@@H](CC(=O)O)C(=O)N[C@H](Cc2ccccc2)C(=O)N1C : 586

---

# assay overview: Pharmacokinetic study in monkeys
# condition: in vivo; Cynomolgus monkey, animal 583, dose 11.8 mg/kg, suspension Cilengitide 300 mg/mL + DMPG 2 mg/mL, 8.00 h; read-out: MSC1097999
measured attribute: level at 8 h (ng/mL)
Quick note: give the figure in ng/mL, leave out the unit.

level at 8 h reported for this compound CC(C)[C@H]1C(=O)N[C@@H](CCCN=C(N)N)C(=O)NCC(=O)N[C@@H](CC(=O)O)C(=O)N[C@H](Cc2ccccc2)C(=O)N1C : 537
